# assay.target: USP7, full-length, native C-Terminus (Homo sapiens)
# Construct: USP7, full-length, native C-Terminus, 0.2 nM
# Sequence (Q93009 whole entry): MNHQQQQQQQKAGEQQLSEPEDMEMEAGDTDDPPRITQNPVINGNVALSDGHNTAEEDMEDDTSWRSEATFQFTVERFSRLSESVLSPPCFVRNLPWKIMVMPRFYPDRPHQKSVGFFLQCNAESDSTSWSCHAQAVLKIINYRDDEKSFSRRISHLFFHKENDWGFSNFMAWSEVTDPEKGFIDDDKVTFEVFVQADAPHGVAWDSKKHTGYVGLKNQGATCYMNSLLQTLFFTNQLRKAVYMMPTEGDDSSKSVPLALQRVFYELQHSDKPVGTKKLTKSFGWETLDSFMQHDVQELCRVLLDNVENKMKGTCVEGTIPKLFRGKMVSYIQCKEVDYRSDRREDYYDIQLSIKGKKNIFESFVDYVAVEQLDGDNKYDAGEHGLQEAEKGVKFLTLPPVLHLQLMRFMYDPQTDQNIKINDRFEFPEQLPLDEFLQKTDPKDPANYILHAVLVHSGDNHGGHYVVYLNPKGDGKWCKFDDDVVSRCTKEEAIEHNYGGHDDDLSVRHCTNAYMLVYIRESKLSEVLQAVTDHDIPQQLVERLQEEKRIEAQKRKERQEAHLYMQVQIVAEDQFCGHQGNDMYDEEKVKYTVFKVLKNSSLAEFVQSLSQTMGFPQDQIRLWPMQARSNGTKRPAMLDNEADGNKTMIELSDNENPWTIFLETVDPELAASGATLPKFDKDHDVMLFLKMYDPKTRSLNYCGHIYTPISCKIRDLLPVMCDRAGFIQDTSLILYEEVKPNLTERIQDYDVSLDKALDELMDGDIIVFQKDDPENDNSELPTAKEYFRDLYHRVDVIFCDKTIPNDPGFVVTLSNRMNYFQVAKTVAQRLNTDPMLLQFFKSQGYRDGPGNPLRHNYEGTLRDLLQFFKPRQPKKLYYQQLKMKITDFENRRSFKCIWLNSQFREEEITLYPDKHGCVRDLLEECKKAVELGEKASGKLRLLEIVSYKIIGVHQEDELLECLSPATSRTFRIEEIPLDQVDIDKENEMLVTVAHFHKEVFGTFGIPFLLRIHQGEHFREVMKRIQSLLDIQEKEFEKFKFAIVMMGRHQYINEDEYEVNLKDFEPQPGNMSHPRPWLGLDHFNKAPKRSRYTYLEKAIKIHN
# assay.procedure: Biochemical USP7 assay with Ubiquitin-Rho110 substrate, compounds pre-incubated with USP7 (USP7_Ub-Rho preInc)
# conditions: compounds pre-mixed with USP7, 1 hour incubation, before substrate; read-out: USP7 Ub-Rho preInc (IC50)
assay.endpoint: IC50 (µM)

structure_smiles_string=CCc1c(-c2ccc(C(=O)NC)cc2)cnc(N)c1-c1ccc(O)cc1 unit_label=µM result_value=3.3
structure_smiles_string=CCc1c(-c2ccc(C(=O)NC)nc2)cnc(N)c1-c1ccc(O)cc1 unit_label=µM result_value=1.5

I: CCc1c(-c2ccc(O)cc2)cnc(N)c1-c1ccc(NS(C)(=O)=O)cc1
II: CCc1c(-c2ccc(NC(C)=O)nc2)cnc(N)c1-c1ccc(O)cc1
III: CCc1c(-c2cncc(C#N)c2)cnc(N)c1-c1ccc(O)cc1
stdin: Arrange items by their IC50 values in increasing order. Enter labels, ranked according to the request.
stdout: II, III, I
